# test settings: pH 2.7
Marks after values point to notes of the source that are not given here.
Field: Log P. Provide a value for each of the compounds that follow.

stdin: Request the reported Log P associated with CC(NC(=C(C#N)C(=O)NC1CC1)c1cn(C)nc1C(F)F)c1nccs1 (racemic)
stdout: 2.04^[a]

stdin: Request the reported Log P associated with CCOC(=O)C(C#N)=C(Nc1ccccc1SC)c1ccnc(Cl)c1Cl
stdout: 3.89^[a]

stdin: Request the reported Log P associated with CCOC(=O)C(C#N)=C(NC1CCC1)c1ccncc1Cl
stdout: 2.84^[a]

stdin: Request the reported Log P associated with CCOC(=O)C(C#N)=C(NC(C(=O)NC)c1ccccc1)c1cn(C)nc1C(F)F (centres unmarked)
stdout: 2.27^[a]

stdin: Request the reported Log P associated with CCOC(=O)C(C#N)=C(NC(C)c1nc(C)c(C)s1)c1cn(C)nc1C(F)(F)F (centres unmarked)
stdout: 3.48^[a]

stdin: Request the reported Log P associated with COC(=O)C(C#N)=C(NC(C)c1ccc(F)cc1)c1cccnc1Cl (centres unmarked)
stdout: 2.89^[a]

stdin: Request the reported Log P associated with CCOC(=O)C(C#N)=C(NC(C)c1cccc(Cl)c1)c1cccnc1Cl (centres unmarked)
stdout: 3.83^[a]

stdin: Request the reported Log P associated with CCOC(=O)C(C#N)=C(NC(c1cc2ccccc2s1)C(F)(F)F)c1ccsc1Br (racemic)
stdout: 4.87^[a]

* * *

# test settings: pH 2.7
Marks after values point to notes of the source that are not given here.
Field: Log P. Provide a value for each of the compounds that follow.

stdin: Request the reported Log P associated with CCOC(=O)C(C#N)=C(NC(C)c1nccs1)c1ccnc(CC)c1Cl (centres unmarked)
stdout: 2.92^[a]

stdin: Request the reported Log P associated with CCOC(=O)C(C#N)=C(NC1CCCC1OCC)c1cccnc1Cl (centres unmarked)
stdout: 3.44^[a]

stdin: Request the reported Log P associated with CCOC(=O)C(C#N)=C(NC(C)c1cc(Cl)cc(C)n1)c1cccnc1Cl (centres unmarked)
stdout: 3.4^[a]

stdin: Request the reported Log P associated with CCOC(=O)C(C#N)=C(Nc1ccc(OC(F)F)cc1)c1cn(C)nc1C(F)F
stdout: 3.04^[a]

stdin: Request the reported Log P associated with CCOC(=O)C(C#N)=C(NC(C)c1cnccn1)c1cccnc1Cl (racemic)
stdout: 2.13^[a]

stdin: Request the reported Log P associated with CCOC(=O)C(C#N)=C(NC(C)C1CC1)c1ccnc2ccccc12 (racemic)
stdout: 3.02^[a]

stdin: Request the reported Log P associated with CCOC(=O)C(C#N)=C(NC(CC)CN(C)C)c1cn(C)nc1C(F)F (centres unmarked)
stdout: 1.22^[a]

stdin: Request the reported Log P associated with CCOC(=O)C(C#N)=C(NC(C)c1cn2ccsc2n1)c1cccnc1Cl (centres unmarked)
stdout: 2.35^[a]

stdin: Request the reported Log P associated with CCOC(=O)C(C#N)=C(NC(C)c1nc(C(C)C)no1)c1cc(Cl)ncc1Cl (racemic)
stdout: 2.2[a]

stdin: Request the reported Log P associated with CCOC(=O)C(C#N)=C(NC(C)C(=O)NC)c1sccc1Cl (centres unmarked)
stdout: 2.08^[a]

stdin: Request the reported Log P associated with CON=C(C)NC(=O)C(C#N)=C(NC(C)C(C)C)c1cccnc1Cl (centres unmarked)
stdout: 1.88^[a]

stdin: Request the reported Log P associated with CCOC(=O)C(C#N)=C(NC(C)C1CC1)c1cccnc1C(F)(F)F (centres unmarked)
stdout: 3.35^[a]

stdin: Request the reported Log P associated with COCC#CC(C)(C)NC(=C(C#N)C(=O)OC)c1sc(C)nc1C(F)(F)F
stdout: 3.06^[a]

stdin: Request the reported Log P associated with CCOC(=O)C(C#N)=C(NC1CC1c1ccccc1)c1cccnc1Cl (centres unmarked)
stdout: 3.44^[a]

stdin: Request the reported Log P associated with COC(=O)C(C#N)=C(NC(C)(C)C(=O)OC)c1sc(C)nc1C(F)(F)F
stdout: 2.9^[a]

stdin: Request the reported Log P associated with CCOC(=O)C(C#N)=C(NC1(c2c(F)cccc2F)CC1)c1sc(Cl)nc1Cl
stdout: 4.14^[a]

stdin: Request the reported Log P associated with CCOC(=O)C(C#N)=C(NCc1ccccc1SC)c1sccc1Br
stdout: 4.01^[a]

stdin: Request the reported Log P associated with COC(=O)C(C#N)=C(NC(C)CC(C)C)c1sc(C)nc1C(F)(F)F (racemic)
stdout: 3.9^[a]

stdin: Request the reported Log P associated with CCOC(=O)C(C#N)=C(NC(C)C(=O)NC)c1conc1C (centres unmarked)
stdout: 1.57^[a]

stdin: Request the reported Log P associated with CCOC(=O)C(C#N)=C(NC(C)c1cccc(Cl)c1)c1cn(C)nc1C(F)F (racemic)
stdout: 3.55^[a]

stdin: Request the reported Log P associated with C#CC(C)(C)NC(=C(C#N)C(=O)OCC)c1cn(C)cc1C(F)(F)F
stdout: 3.21^[a]

stdin: Request the reported Log P associated with COC(=O)C(C#N)=C(Nc1ccccc1OC(C)C)c1sc(C)nc1C(F)(F)F
stdout: 3.96^[a]

stdin: Request the reported Log P associated with CCOC(=O)C(C#N)=C(NCc1ccc2ccccc2n1)c1cccnc1Cl
stdout: 3.13^[a]

stdin: Request the reported Log P associated with CCOC(=O)C(C#N)=C(NCC#N)c1sccc1Br
stdout: 2.33^[a]

stdin: Request the reported Log P associated with CCNC(=O)C(C#N)=C(NC(C)c1ccccn1)c1ccnc(Cl)c1F (centres unmarked)
stdout: 2.5^[a]

stdin: Request the reported Log P associated with CCOC(=O)C(C#N)=C(NC(C)C1CCCO1)c1cccnc1Cl (centres unmarked)
stdout: 2.71^[a]

stdin: Request the reported Log P associated with CCOC(=O)C(C#N)=C(NC(C)C1CCCO1)c1cn(C)nc1C(F)F (centres unmarked)
stdout: 2.58^[a]

stdin: Request the reported Log P associated with CCOC(=O)C(C#N)=C(NC(C)C(C)C)c1sc(Cl)nc1Cl (centres unmarked)
stdout: 4.23^[a]

stdin: Request the reported Log P associated with COC(=O)C(C#N)=C(NCc1nc(C(F)(F)F)cs1)c1sc(C)nc1C(F)(F)F
stdout: 3.06^[a]

stdin: Request the reported Log P associated with COC(=O)C(C#N)=C(Nc1ccccc1SC)c1cn(C)nc1C(F)F
stdout: 2.8^[a]

stdin: Request the reported Log P associated with CC(C)C(C)NC(=C(C#N)C(=O)NC1CCCC1)c1cccnc1Cl (centres unmarked)
stdout: 3.9^[a]

stdin: Request the reported Log P associated with CCOC(=O)C(C#N)=C(NC(C)C(N)=O)c1cccnc1C(F)(F)F (centres unmarked)
stdout: 1.91^[a]

stdin: Request the reported Log P associated with CCC(C)NC(=C(C#N)C(=O)OC)c1sc(C)nc1C(F)(F)F (centres unmarked)
stdout: 3.23^[a]

stdin: Request the reported Log P associated with CCOC(=O)C(C#N)=C(NCc1ccc(F)cn1)c1sc(C)nc1C(F)(F)F
stdout: 2.98^[a]

stdin: Request the reported Log P associated with CCOC(=O)C(C#N)=C(NC(C)c1nc(C2CC2)cs1)c1cccnc1Cl (centres unmarked)
stdout: 3.37^[a]
